- Tested on: MELK
- settings: concentration: 1 μM, replicates: in singlicate; n = 1;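 note: KINOMEscan kinase panel screen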
Label yes (1) when %Inh is strictly below 20%; otherwise label no (0).

The following compounds have reported results that may help.
Just wondering, is %Inh of COc1cc2c(cc1OCCN1CCNCC1)ncc1c3ccc(C#N)cc3[nH]c21 below 20%? no (0)

Input Cn1cc(-c2ccc3c(c2)CCN3C(=O)Cc2cccc(Cl)c2)c2c(N)ncnc21 yes (1)

Input O=C(Nc1cccc(-c2nn3ccccc3c2-c2ccnc(Nc3cccc(C(F)(F)F)c3)n2)c1)c1c(F)cccc1F yes (1)

Input CC(C)c1nc(-c2cccc(NS(=O)(=O)c3c(F)cccc3F)c2F)c(-c2ccnc(Nc3ccc(N4CCOCC4)nc3)n2)s1 no (0)

Input O=C(Nc1cccc(Oc2ccc3nc(NC(=O)C4CC4)cn3n2)c1)c1ccccc1C(F)(F)F yes (1)

Input COc1ccc(CNC(=O)NC2CCN(c3ccnc(Nc4ccc(F)cc4)n3)CC2)cc1 yes (1)

Input Fc1ccc(-c2ncn(C3CCNCC3)c2-c2ccnc(Oc3ccc(-c4ccccc4)cc3)n2)cc1 no (0)

Input Nc1n[nH]c2cnc(-c3ccccc3)cc12 no (0)

Input CCn1c(-c2nonc2N)nc2c(C#CC(C)(C)O)nc(OC[C@H](N)c3ccccc3)cc21 no (0)

Input COc1cccc(C(=O)Nc2cccc(Oc3ccc4nc(NC(=O)C5CC5)cn4n3)c2)c1 no (0)

Further cases:
Just wondering, is %Inh of Clc1ccc(-c2nn3ncccc3c2-c2ccnc(Nc3ccc4c(c3)OCCO4)n2)cc1 below 20%? yes (1)

Input O=C(Nc1cccc(-c2nn3ccccc3c2-c2ccnc(Nc3cccc(F)c3)n2)c1)c1c(F)ccc(F)c1Cl yes (1)

---

- System: ACVRL1
- settings: concentration: 1 μM, replicates: in singlicate; n = 1
readout label: %Inh (%)
State the answer as a number, implicitly in %.

Which %Inh value belongs to C[C@@H]1CC[C@@H](C(=O)Nc2ccccc2)CN1c1cc(-c2ccc3c(N)n[nH]c3c2)nc(N)n1 ? 0

Input CCCCc1nn2ncccc2c1-c1ccnc(Nc2ccc(N3CCN(C)CC3)cc2)n1 51

Input O=c1[nH]cc(-c2ccc(N3CCOCC3)cc2)c2sc(-c3cn[nH]c3)cc12 0

Input Oc1cc(Nc2ccnc3cc(I)ccc23)ccc1F 69

Further cases:
Which %Inh value belongs to c1ccc(-c2cnc3nccnn23)cc1 ? 0

---

- System: TLK2
- settings: concentration: 1 μM, replicates: in singlicate; n = 1
// reported %Inh for each item listed
State the answer as a number, implicitly in %.

See these solved cases before continuing.
Which %Inh value belongs to O=C(Nc1n[nH]c2cc(-c3ccoc3)ccc12)C1CC1 ? 0

Input Cc1cccc(NC(=O)Nc2ccc(Oc3ncnc4ccn(C)c34)cc2)c1 0

Input CCc1ccc(-c2ccc3c(c2)-c2c(cnn2C)S(=O)(=O)N3C)cc1 0

Input O=C(O)C(F)(F)F.O=C(O)C(F)(F)F.O=c1[nH]ccc2nc(N[C@@H]3CCCNC3)nc(Nc3ccc(S(=O)(=O)N4CCOCC4)cc3)c12 98.2

Input c1ccc(-c2n[nH]cc2Nc2ccnc3ccccc23)nc1 0

Input Nc1ncnc2c1nc(-c1ccccc1)n2-c1ccccc1 19

Input FC(F)(F)c1ccc(/C=C/c2cncnc2Nc2ccc3[nH]c(Cc4ccccc4)nc3c2)cc1 0

Input CCn1c(-c2nonc2N)nc2c(C#CC(C)(C)O)nc(OC[C@H](N)c3ccccc3)cc21 0

Input COc1cc(Nc2nccc(N3CCC(NC(=O)c4cc5ccccc5s4)C3)n2)cc(OC)c1OC (stereo not shown) 18

Input COc1cccc(C2=C(Nc3ccc(Cl)c(C(=O)O)c3)C(=O)NC2=O)c1 0

Further cases:
Which %Inh value belongs to CC(=O)N1CCN(c2ccc(Nc3nccc(-c4sc(C(C)C)nc4-c4cccc(NS(=O)(=O)c5cccc(Cl)c5)c4)n3)cn2)CC1 ? 0

Input COC(=O)Nc1nc2cc(Oc3ccc(NC(=O)Nc4cc(C(F)(F)F)ccc4F)cn3)ccc2[nH]1.Cl.Cl 0

Input COc1ccc(-c2coc3ccc(-c4nnc(SCc5ccc(OC)c(C(F)(F)F)c5)o4)cc23)cc1 0

Input Cc1ccc(C(=O)N2CC[C@@H](O)C2)cc1-n1c(C)cc(OCc2ccc(F)cc2F)c(Br)c1=O 0

Input Cc1ccc(S(=O)(=O)Nc2ccc(Nc3nccc(Nc4cccc5[nH]ncc45)n3)cc2)cc1 0

Input Cc1cccc(Nc2nc(N[C@H]3CCNC3)ncc2C(N)=O)c1.Cl 0

Input COc1cc(Nc2nccc(N3CCC(NC(=O)Nc4cccc(C(C)=O)c4)C3)n2)cc(OC)c1OC (stereo not shown) 0

Input CCS(=O)(=O)c1ccc(OC)c(Nc2nccc(-c3c(-c4cccc(NC(=O)c5c(F)cccc5F)c4)nn4ncccc34)n2)c1 0

Input O=C(Nc1cccc(Oc2ccc3nc(NC(=O)C4CC4)cn3n2)c1)c1ccccc1C(F)(F)F 3

Input CCCCc1nn2ncccc2c1-c1ccnc(Nc2ccc(N3CCN(C)CC3)cc2)n1 0

---

- System: STK35
- settings: concentration: 1 μM, replicates: in singlicate; n = 1
// reported %Inh for each item listed
State the answer as a number, implicitly in %.

See these solved cases before continuing.
Which %Inh value belongs to CNC(=O)c1ccccc1Nc1nc(Nc2ccc(N3CCOCC3)cc2)ncc1Cl.Cl ? 50

Input Cc1cccc(Nc2nc(N[C@H]3CCNC3)ncc2C(N)=O)c1.Cl 1

Input c1ccc(Oc2ccc(Nc3ccnc4cc(-c5ccc(CNCCN6CCOCC6)o5)ccc34)cc2)nc1 48

Input CN(C)S(=O)(=O)c1cc(-c2ccc3nccc(-c4cccc(S(N)(=O)=O)c4)c3c2)cnc1N 8

Input Cc1ccc(S(=O)(=O)Nc2ccc(Nc3nccc(Nc4cccc5[nH]ncc45)n3)cc2)cc1 55

Input COc1cccc(C(=O)Nc2cccc(Oc3ccc4nc(NC(=O)C5CC5)cn4n3)c2)c1 0

Input COc1cc(Nc2nccc(N3CCC(NC(=O)c4cc5ccccc5s4)C3)n2)cc(OC)c1OC (centres unmarked) 9

Further cases:
Which %Inh value belongs to C[C@@H](Oc1cc(-n2cnc3cc(-c4ccnc(NCCS(C)(=O)=O)c4)ccc32)sc1C(N)=O)c1ccccc1Cl ? 15

---

- System: SRPK2
- settings: concentration: 1 μM, replicates: in singlicate; n = 1
readout label: %Inh (%)
State the answer as a number, implicitly in %.

See these solved cases before continuing.
Which %Inh value belongs to FC(F)(F)c1ccc(/C=C/c2cncnc2Nc2ccc3[nH]c(Cc4ccccc4)nc3c2)cc1 [GW709199] ? 56

Input Cc1cccc(NC(=O)Nc2ccc(Oc3ncnc4ccn(C)c34)cc2)c1 0

Input CSc1cccc2c(-c3ccncn3)c(-c3ccc(F)cc3)nn12 [GW514786] 0

Input COc1cccc(C2=C(Nc3ccc(Cl)c(C(=O)O)c3)C(=O)NC2=O)c1 [SB-390769] 0

Further cases:
Which %Inh value belongs to Cl.c1ccc(-c2ccc3c(Nc4ccc5[nH]ccc5c4)ccnc3c2)nc1 [GW440138] ? 22

Input Oc1cc(Nc2ccnc3cc(I)ccc23)ccc1F [GW552771] 0

Input Cl.Cl.NCC(NCc1ccc(-c2ccnc3[nH]ccc23)s1)c1ccccc1 (stereo not shown) [GSK1321565] 83

Input Cl.NC(=O)c1cccc(Nc2nccc(Nc3ccc(Oc4c(Cl)cccc4Cl)c(Cl)c3)n2)c1 [GW659009] 0

Input Cc1ccc(S(=O)(=O)Nc2ccc(Nc3nccc(Nc4cccc5[nH]ncc45)n3)cc2)cc1 [GSK581271] 5

Input CN(c1ccc(NC(=O)Nc2cc(C(F)(F)F)ccc2F)cc1)c1ccnc(Nc2ccc(S(N)(=O)=O)cc2)n1 [GW809893] 0

Input c1ccc(-c2cnc3nccnn23)cc1 [AH20685] 0

Input CNC(=O)c1ccccc1Nc1nc(Nc2ccc(N3CCOCC3)cc2)ncc1Cl.Cl [GSK1576028] 35

Input Clc1ccc(-c2nn3ncccc3c2-c2ccnc(Nc3ccc4c(c3)OCCO4)n2)cc1 [GW829116] 0

---

- System: SIK
- settings: concentration: 1 μM, replicates: in singlicate; n = 1
// reported %Inh for each item listed
State the answer as a number, implicitly in %.

Which %Inh value belongs to O=C(NC1CCN(c2ccnc(Nc3ccc(F)cc3)n2)C1)c1cc2ccccc2s1 (stereo not drawn) ? 11

Input O=C(Nc1n[nH]c2nc(-c3ccc(O)cc3)ccc12)C1CC1 0

Input COc1cc2c(cc1OCCN1CCNCC1)ncc1c3ccc(C#N)cc3[nH]c21 18

Input Cc1ccc(C)c(NC(=O)NC2CCN(c3ccnc(Nc4ccc(F)cc4)n3)C2)c1 (stereo not drawn) 0

Input Nc1ncc(-c2ccc3nccc(-c4ccncc4)c3c2)cc1S(=O)(=O)N1CCOCC1 0

We now examine a further molecule.
Which %Inh value belongs to COc1cc(Nc2nccc(N3CCC(NC(=O)c4cc5ccccc5s4)C3)n2)cc(OC)c1OC (stereo not drawn) ? 14
